test system: S. flexneri 5a M90T; assay: MIC in tryptic soy broth, S. flexneri; type: cell-based, Shigella flexneri; conditions: Shigella flexneri, 5AM90T, read-out: MIC (μM) TSB
Quantity: MIC (µM)
Answer format: numeric, µM implied, no suffix.

Record CO/N=C1\CN(c2nc3c(cc2F)c(=O)c(C(=O)O)cn3C2CC2)CC1CN (stereo not shown) , field MIC: 0.0156

// field: MIC; key: `C[C@@H]1CN(c2c(F)c(N)c3c(=O)c(C(=O)O)cn(C4CC4)c3c2F)C[C@H](C)N1` ; value = 0.0312

Record summary for NC1CCN(c2nc3c(cc2F)c(=O)c(C(=O)O)cn3-c2ccc(F)cc2F)C1 (stereo not shown) : reported MIC = 0.0156

Please fill in: MIC reported for `CN1C[C@@H]2C[C@H]1CN2c1cc2c(cc1F)c(=O)c(C(=O)O)cn2C1CC1` = 0.0625

====

For each record, write down the corresponding pEC50.
test system: non-growing P. aeruginosa DSM1117; experiment: Dilution-regrowth assay (OD600, start-growth-time) on stationary-phase P. aeruginosa; type: cell-based, Pseudomonas aeruginosa; details: Pseudomonas aeruginosa, DSM1117; P. aeruginosa; regrowth delay of non-growing bacteria, 1:4 CA-MHB pH 7.4, 24 h treatment, OD600 8 h after dilution; read-out: EC50
Field pEC50 (float): negative decimal logarithm of the concentration in molar.

# compound `CC[C@H]1OC(=O)C[C@@H](O)[C@H](C)[C@@H](O[C@@H]2O[C@H](C)C[C@H](N(C)C)[C@H]2O)[C@@H](CC=O)C[C@@H](C)C(=O)/C=C/[C@]2(C)O[C@H]2[C@@H]1C` ; its pEC50 = 5.64

Briefly, pEC50 measured for `O=C(O)c1cn(-c2ccc(F)cc2)c2cc(N3CCNCC3)c(F)cc2c1=O` : 6.67

For reference, reported pEC50 for NC1CCN(c2nc3c(cc2F)c(=O)c(C(=O)O)cn3-c2ccc(F)cc2F)C1 (stereo not drawn) stands at 6.63

Reported pEC50 of `C=C[C@]1(C)C[C@@H](OC(=O)CSC(C)(C)CNC(=O)[C@H](N)C(C)C)[C@]2(C)[C@H](C)CC[C@]3(CCC(=O)[C@H]32)[C@@H](C)[C@@H]1O` : 6.49

The compound `C[C@H]1NCc2cc(-c3ccc4c(=O)c(C(=O)O)cn(C5CC5)c4c3OC(F)F)ccc21` showed pEC50 equal to 6.01

pEC50 for CC1Sc2c(C(=O)O)c(=O)c3cc(F)c(N4CCNCC4)cc3n21 (stereo not drawn) is 7.09

====

tested on: non-growing UPEC CFT073; experiment: Dilution-regrowth assay (screen, hit validation, dose-response) on stationary-phase UPEC; type: cell-based, Escherichia coli; conditions: Escherichia coli; E. coli, LPM pH 5.5; regrowth delay of non-growing bacteria, 24 h treatment, OD600 6 h after 2500-fold dilution; read-out: EC50
Quantity: pEC50
// pEC50 is dimensionless: -log10 of concentration (M)

The compound `CO[C@H]1/C=C/O[C@@]2(C)Oc3c(C)c(O)c4c(O)c(c(/C=N/N5CCN(C)CC5)c(O)c4c3C2=O)NC(=O)/C(C)=C\C=C\[C@H](C)[C@H](O)[C@@H](C)[C@@H](O)[C@@H](C)[C@H](OC(C)=O)[C@@H]1C` showed pEC50 equal to 6.02

The compound listed as CC1Sc2c(C(=O)O)c(=O)c3cc(F)c(N4CCNCC4)cc3n21 (stereo not drawn) shows pEC50 equal to 5.06

Memo: `N[C@@H]1[C@H]2CN(c3nc4c(cc3F)c(=O)c(C(=O)O)cn4-c3ccc(F)cc3F)C[C@@H]12` , reported pEC50: 5.29
